B1: HEEH_KT_rd6_0007 (parent)
chain: SIEEEIKKAEEAKEKGKTFIHGDFVATTEELLDELLKRLRKKL

# Variants of: B1
# TEST_PROTOCOL: folding stability dG (cDNA display proteolysis); higher = more stable
# RECORDED_CONDITIONS: PBS, room temperature
METRIC_NAME: folding stability dG (kcal/mol)
Write the value in kcal/mol as a bare number.

Answered examples (2):
{"columns": ["MONOMER_SEQUENCE", "folding stability dG, kcal/mol"],
 "data": [
  ["SIEEEIKKAEEAKEKGKKFIHGDFVATTEELLDELLKRLRKKL", 1.1],
  ["SIEEEIKKAEEAKEKGKTFIHGDFVATTGELLDELLKRLRKKL", 1.32]
]}

Kindly note the recorded folding stability dG for SIEEEIKKAEEAKEKGKTFIHGDFVATTEELLDELLKRQRKKL , which is -0.059

Kindly note the recorded folding stability dG for SIEEEIKKAEEAKEKGKTFIHGDFVPTTEELLDELLKRLRKKL , which is 0.691

src = the MegaScale stability set (Tsuboyama et al. 2023)
